Tested on: M14 melanoma
Assay info: NCI tumour cell line growth inhibition, 48 h
Exercise: state measured TGI for each of the molecules provided.
Write the value in µM as a bare number.

The recorded TGI for C/C=C(\C)c1cc(=O)c2c(C)cc3c(c2o1)C(=O)c1c(O)c(C2CC(C)(N(C)C)C(O)C(C)O2)cc(C2CC(N(C)C)C(O)C(C)O2)c1C3=O (centres undefined) is 0.312

Per the records, this molecule ( C=C1C(=O)O[C@H]2[C@H]1CC/C(Cn1cc(CNCCc3c[nH]c4ccc(Cl)cc34)nn1)=C\CC[C@@]1(C)O[C@@H]21 ) has TGI equal to 31.2

* * *

Task for the reader: assign each of the following compounds its reported GI50.
System: NCI/ADR-RES ovarian
Assay info: NCI tumour cell line growth inhibition, 48 h

Documented GI50 of Cc1oc2nc[nH]c(=O)c2c1C(=O)/C=C/c1ccc(Cl)cc1 : 2440 nM

Entry Cn1cc(C2=C(c3c4n(c5ccccc35)CCCC4)C(=O)NC2=O)c2ccccc21 — recorded GI50 = 7810 nM

GET /value?item= N#CC(C#N)=Cc1c(-c2ccccc2)[nH]c2ccccc12 &field=GI50 returns 820 nM

Form: compound = COc1ccc(-c2nn(-c3ccc(NC(=O)c4ccc(Cl)c(C(F)(F)F)c4)cc3)cc2-c2ccncc2)cc1Cl ; GI50 = 2070 nM

* * *

Tested on: NCI-H522 lung
Assay info: NCI tumour cell line growth inhibition, 48 h
Please provide measured GI50 for the entries that follow.

The molecule listed as Cc1csc(/C=N/NC(=O)c2nnn(-c3ccnc4c(C(F)(F)F)cccc34)c2C)c1 has a reported GI50 of 28.7 µM

So for COc1cccc(C(=O)Nc2ccc(CN3CCc4nc5cc(OC)c(OC)cc5cc43)cc2)c1 , the logged GI50 turned out to be 3.94 µM

# GI50 (molecule: O=C(Cn1c(=O)c(-c2ccccc2)nc2ccccc21)c1ccc(Cl)cc1 ) is > 100 µM

For record O=C(/C=C1\C(=O)N(Cc2ccc([N+](=O)[O-])cc2)c2ccccc21)c1ccc(OCCN2CCCCC2)cc1 the listed GI50 is 0.614 µM

Per the records, this molecule ( COc1ccc(-c2nn(-c3ccc(NC(=O)c4ccc(Cl)c(C(F)(F)F)c4)cc3)cc2-c2ccncc2)cc1Cl ) has GI50 equal to 4.03 µM

# molecule O=S(=O)(Nc1cc(Br)c(O)c2ccccc12)c1ccc(F)cc1 ; its GI50 = 5.23 µM

Reported GI50 ( COc1ccc2c(c1)[C@]1(C[C@H]1c1ccc3c(/C=C/c4ccc(CN5C[C@@H](C)O[C@@H](C)C5)cc4)n[nH]c3c1)C(=O)N2 ) = 6.4 µM

Kindly note the recorded GI50 for COc1cc2c(c(OC)c1OC)C(=O)CC(c1cccc(NC(=O)c3ccc(Br)cc3)c1)O2 (configuration not stated) , which is 1.49 µM

// sample CC1=CC[C@@H]2C(C)(C)C(=O)CC[C@@]2(C)[C@@H]1COc1ccc2ccc(=O)oc2c1 , its GI50 was 8.97 µM

Given item Cc1cc(N2CCN(C)CC2)nc(NCc2cc(Nc3ccnc4cc(Cl)ccc34)ccc2F)n1 , the value recorded as its GI50 is 1.92 µM

Entry under test: CCN(CC)C(=O)CC1=C(C)/C(=C/c2[nH]c(-c3ccc[nH]3)cc2OC)N=C1C . Its GI50 was 0.456 µM

Memo: CN1CCN(c2ccc(-c3ccc4ncc(C#N)c(Nc5ccc(F)c(Cl)c5)c4c3)cc2)CC1 , reported GI50: 1.15 µM

* * *

Test system: NCI-H522 lung
Assay info: NCI tumour cell line growth inhibition, 48 h
Quantity measured: TGI (µM)
Please respond with the number in µM and leave the unit unwritten.

Lab book: TGI of Cc1ccc(S(=O)(=O)OC[C@]23CCC(C)(C)C[C@H]2C2=CC[C@@H]4[C@@]5(C)CCCNC(C)(C)[C@@H]5CC[C@@]4(C)[C@]2(C)CC3)cc1 noted as 3.38

response.value for Cc1cc(Cc2cc(C)c(O)c(C)c2)cc(C)c1O (field: TGI) = 15.4

Looking up CCCCCCCC(=O)OC[C@@H](C[As](=O)(O)O)OC(=O)CCCCCCC , I see its TGI listed as 4.83

Record summary for Cn1c(NN)nc(-c2ccc([N+](=O)[O-])cc2)c(C#N)c1=O : reported TGI = 29.9

Lab note: measured TGI of COc1cc2ccccc2c2cc([N+](=O)[O-])oc12 was 1.35

Reported TGI of O=c1cc(CO)n(CCc2c[nH]c3ccccc23)cc1O : 78.7

response.value for Cc1nc(Cl)c(Cl)c(Cl)n1 (field: TGI) = 3.88

Documented TGI of CN1CCN(c2ccc(-c3ccc4ncc(C#N)c(Nc5ccc(F)c(Cl)c5)c4c3)cc2)CC1 : 4.02

Noted for CC1(C)C(c2ccccc2)C12CCC1(C2=O)C(c2ccccc2)C1(C)C (configuration not stated) : its TGI reads 30.5

Record O=C1c2cccc3cccc(c23)C(=O)N1CCCNCCCCNCCCN1C(=O)c2cccc3cccc(c23)C1=O , field TGI: 0.0803

* * *

Tested on: MDA-MB-435
Assay info: NCI tumour cell line growth inhibition, 48 h
Hi there, I'd appreciate the recorded TGI for every entry that follows.

Field TGI (entry OC(CC(CC(O)(C(F)(F)Cl)C(F)(F)Cl)=NNc1ccccc1)(C(F)(F)Cl)C(F)(F)Cl ) reads > 10 µM

What the record says about CN1CCN(CCCOc2cccc3nc(Nc4ccc(Cl)c(F)c4)ccc23)CC1 : TGI is 3.14 µM

The measured TGI associated with COc1ccc(N)c(C(O)CCNC(C)=O)c1 (stereo unspecified) reads > 100 µM

TGI in this record for C=CCn1c(=O)c2cnc(Nc3ccc(N4CCN(C)CC4)cc3)nc2n1-c1ccc2c(n1)[C@@](O)(CC)CC2 : 0.795 µM

Reported TGI ( O=C(Cn1c(=O)c(-c2ccccc2)nc2ccccc21)c1ccc(Cl)cc1 ) = > 100 µM

The molecule identified as Nc1nc(N)c(C2=CCN(Cc3ccccc3)CC2)c(=O)[nH]1 registered its TGI at > 100 µM

The molecule listed as CCOC(=O)N1CCN(c2c(C)nc(C)[nH]c2=O)CC1 shows TGI equal to > 100 µM

TGI reading for CN(Cc1cnc(N)nc1N)c1ccc(C(=O)O)cc1 : > 100 µM

For this molecule ( C=CCN1C(=O)CC1N(CC=C)S(=O)(=O)c1ccc(C)cc1 (stereo unspecified) ), measured TGI is > 100 µM

molecule NC(=O)c1cc(-c2ccc(-n3ccnc3)cc2)n[nH]c1=O , TGI observed: > 100 µM

Noted for Cc1oc2nc[nH]c(=O)c2c1C(=O)/C=C/c1ccc(Cl)cc1 : its TGI reads 8.64 µM

GET /value?item= CC1=NN(c2nc(N)nc(/C(C#N)=C/c3ccc([N+](=O)[O-])o3)n2)C(C)(C)C1 &field=TGI returns 6.38 µM

Looking up Cc1cc(=O)oc2c(CN3CCCCC3)c(O)ccc12 , I see its TGI listed as > 100 µM

Please fill in: TGI reported for COc1cc(C2S/C(=C/c3ccccc3)C(=O)N2c2cc(Cl)ccc2Cl)cc(OC)c1OC (stereo unspecified) = > 100 µM

# TGI (molecule: COC1C(O)C(C)OC(OC2C(Oc3cccc4c(O)c5c(=O)oc6ccc(C)c7c(=O)oc(c34)c5c67)OC(C)C3O[C@H](c4ccccc4)OC32)C1O (stereo partly specified) ) is 7.22 µM

Entry CSc1ccccc1P(c1ccccc1SC)c1ccccc1SC — recorded TGI = > 100 µM

Kindly note the recorded TGI for Cn1cc(C2=C(c3c4n(c5ccccc35)CCCC4)C(=O)NC2=O)c2ccccc21 , which is > 15.2 µM

Briefly, TGI measured for O=C(CCCn1c(=O)c2sc3ccccc3c2n2nnc(-c3ccccc3)c12)NCCc1cnc[nH]1 : 3.06 µM

TGI for CN(C)c1ccc(-c2ccc(-c3ccc(C(=N)N)c(F)c3)s2)cc1 is 3.17 µM

The recorded TGI for entry CC1CC(=O)Nc2cc(Cl)ccc2N1C(=O)C1CC1 (stereo unspecified) equals > 100 µM

Entry under test: COc1cccc(/C(CC(O)(C(F)(F)F)C(F)(F)F)=N\N(C)C)c1 . Its TGI was > 100 µM

* * *

Test system: DMS 273 small cell lung
Assay info: NCI tumour cell line growth inhibition, 48 h
Quantity measured: TGI

Given item O=c1[nH][nH]c(=O)[nH]1 , the value recorded as its TGI is > 100 µM

Item: Cc1nc2ccccc2c(=O)n1/N=C(\N=Nc1cc(Cl)ccc1Cl)c1cccc(-c2ccco2)c1 | TGI: > 100 µM

Reported TGI ( O=C1c2ccccc2C(=O)C2C1C1C(=O)c3ccccc3C(=O)C21 (stereo unspecified) ) = > 100 µM

Form: compound = N#CC(c1ccc(Cl)cc1)c1c(O)nc2ccc(=N)cc-2n1O (stereo unspecified) ; TGI = > 100 µM

# TGI of N#CNC(N)=NCCO = > 100 µM

compound CC1(C)OC(=O)[C@@](C)([C@H](O)c2ccccc2)O1 , TGI observed: > 100 µM

// field: TGI; key: Nc1ccc2c(c1)C1=NNC(=O)CC1C2 (stereo unspecified) ; value = > 100 µM

The recorded TGI for entry Cc1ccc(NC(=O)CC/C(CC(=O)C(C)(C)C)=N/NC(=O)C(N)=O)cc1C equals > 100 µM

The value of TGI measured for the compound CC1(C)C(c2ccccc2)=NN(O)c2ccccc21 turned out to be > 100 µM

For record NC(C/[N+]([O-])=N/O)C(=O)O (stereo unspecified) the listed TGI is 50.4 µM

The compound listed as O=C(Cc1nc2ccccc2c(=O)n1-c1c(Cl)cccc1Cl)c1ccncc1 has a reported TGI of 40.6 µM
